Cited source for all entries: patent US20120107330A1

targetEntity: T1, mouse TNFR1 on L929 cells (mouse, UniProt P25118 30-454)
T1 sequence (looked up): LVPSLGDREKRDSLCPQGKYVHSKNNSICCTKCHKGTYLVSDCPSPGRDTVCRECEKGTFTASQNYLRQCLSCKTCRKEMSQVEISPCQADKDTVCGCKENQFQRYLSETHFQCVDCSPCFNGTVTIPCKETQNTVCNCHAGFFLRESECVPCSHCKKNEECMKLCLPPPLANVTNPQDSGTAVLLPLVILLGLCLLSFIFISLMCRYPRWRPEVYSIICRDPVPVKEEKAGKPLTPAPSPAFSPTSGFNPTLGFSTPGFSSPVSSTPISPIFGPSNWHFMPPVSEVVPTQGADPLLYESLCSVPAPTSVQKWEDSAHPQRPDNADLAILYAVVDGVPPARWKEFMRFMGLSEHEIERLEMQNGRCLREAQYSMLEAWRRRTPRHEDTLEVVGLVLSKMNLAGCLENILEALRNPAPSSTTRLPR
testSummary: cell-based or functional assay
reportedProperty: Mouse L929 ND50 (nM)
Write the answer as a number in nM, unit excluded.

// solved cases for Mouse L929 ND50 follow
1) DOM1h-574-133 (other, VH dAb) VH: EVQLLESGGGLVQPGGSLRLSCAASGFTFVKYSMGWVRQAPGKGLEWVSQISDTADRTYYDHSVKGRFTISRDNSKNTLYLQMNSLRAEDTAVYYCAIYTGRWEPFVYWGQGTLVTVSS ... 110
2) DOM1h-574-138 (other, VH dAb) VH: EVQLLESGGGLVQPGGSLRLSCAASGFTFFKYSMGWVRQAPGKGLEWVSQISDTADRTYYAHSVKGRFTISRDNSKNTLYLQMNSLRAEDTAVYYCAIYTGRWAPFEYWGQGTLVTVSS ... 23
3) DOM1h-574-109 (other, VH dAb) VH: EVQLLESGGGLVQPGGSLRLSCAASGFTFVKYSMGWVRQAPGKGLEWVSQISDTADRTYYAHSVKGRFTISRDNSKNTLYLQMNSLRAEDTAVYYCAIYTGRWVPFEYWGQGTLVTVSS ... 20

Bench note: what Mouse L929 ND50 did DOM1h-574-139 (other, VH dAb) VH: EVQLLESGGGLVQPGGSLRLSCAASGFTFLKYSMGWVRQAPGKGLEWVSQISDTADRTYYAHSVKGRFTISRDNSKNTLYLQMNSLRAEDTAVYYCAIYTGRWAPFEYWGQGTLVTVSS show?
28
